- experimental protocol: yeast display, Sf9 membrane polyspecificity reagent, FACS + sequencing; frameworks hold sequencing errors

{"sequence chain": "QVQLVESGGGLVQAGGSLSLSCAASGITFDYYAMGWYRQAPGKERELVAAISGRGTSTYYADSVKGRFTLSRDNAKNTVYLQLNSLKPEDTAVYYCAADPAAQREQSFLCRRGPGYDYWGQGTQVTVSS", "polyreactivity (PSR sort gate)": "low polyreactivity"}
{"sequence chain": "QVQLVESGGGLVQAGGSLRLSCAASGITFRRYAMGWYRQAPGKERELVASITRGGSTSYADSVKGRFRFSRDNAKNTVYLQMNSLKPEDTAVYYCAADAFRGFYWGQGTQVTVSS", "polyreactivity (PSR sort gate)": "high polyreactivity"}
{"sequence chain": "HVQLQESGGGLVQAGGSLRLSCAASGNISYSRNMGWYRQAPGKERELVAAIDRGAITYYADSVQGRFTISRDNAKNTVYLQIYSLKPEDTAVYYCAAEYHDRWDHLYWGQGTQVTVSS", "polyreactivity (PSR sort gate)": "high polyreactivity"}
{"sequence chain": "QVQLQESGGGLVRAGGSLRLSCAASGYISTSIAMGWYRQAPGKERELVASFGGGAITNYADSVKGFTISRDNGKNSVYLQMNSLKPEDTAVYYCAVYHGDRGYYSYWGQGTQVTVSS", "polyreactivity (PSR sort gate)": "low polyreactivity"}
{"sequence chain": "QVLLVESGGGLVQAGGSLRLSCAASGSIFWGYDMGWYRQAPGKDSELVAVISWSTTSTYFADSVKGRFTISRDNANNTVYLLMNSLKAEDTAVYYCNSEAYQYWEFDYWGQGTQVTVSS", "polyreactivity (PSR sort gate)": "low polyreactivity"}
{"sequence chain": "QVQLVVSGGGLVQAGGSLRLSCAASGFTFSSNAMGWYRQAPGKECELVAAISTSGASTYYADSVKGRFTISRDNAKNTVYLQMNSLKPADSAVYYCNVPQWHRWYGYPGEDYDYWGQGTQVTVSS", "polyreactivity (PSR sort gate)": "high polyreactivity"}
{"sequence chain": "QVQLVESGRRLVQAGGSLRLSCAASGRIFPGNAMGWYRQAPGKERELVAAMSYGGGSTYYADSVKGRFTISRDNAKNTVYLQMNSLKPEDTAVYYCAARYRGSRFDYWGQGTQVTVSS", "polyreactivity (PSR sort gate)": "high polyreactivity"}
{"sequence chain": "QVQLVESGGGLVQAGGSLRLSCAASGRTFWAYAMGWYRQAPGKERELVAAITTSGGSTNYADSVKGRFTISRDNAKNTVYLQMNSLKPEDTAVYYCNADPTYHVVNGVGYLGQGTQVTVSS", "polyreactivity (PSR sort gate)": "low polyreactivity"}
{"sequence chain": "QVHLVESGGGLVQAGGSLRLSCAASGSIFRSYAMGWYRQAPGKERELVAGISWSGGSTYYADSVKGRFTISRDNAKNTVYLQMNSLKPEDTPVYYCDADIKIRLYTTGDYWGQGTQVTVSS", "polyreactivity (PSR sort gate)": "low polyreactivity"}
{"sequence chain": "QVQIVESGGGLVQAGGSLRLSCAASGSTFRRYVMGWYRQAPGKERELVAAISWSGTSTNYADSLKGRFTISRDNAKNTVYLHMNSLKPEDTAVYYCATQSLYYRWGLDYCGQGTQVTVSS", "polyreactivity (PSR sort gate)": "high polyreactivity"}
{"sequence chain": "QVQLVESGGGLVQAGGSLRLSSAASGSTFTRNGMGWYRQAPGKERELVAVISGSSSSTYYADSVKGRFTISRDNAKNTVYLQMNSLKPEDTAVYYCAARRYYGYAQYYYWGQGTQVTVSS", "polyreactivity (PSR sort gate)": "high polyreactivity"}
{"sequence chain": "QVQLVDSGGGLVQAGASLRLSCAASGIIFTGYAKGWYRQAPGKERDLVAAISGIGTSTYYADSVKGRFTISRDNAKNTVYLQMNSLKPEDTAVYYCAARYVSRRFLGYYYWGQGTQVTVSS", "polyreactivity (PSR sort gate)": "high polyreactivity"}
{"sequence chain": "QVQLVESGGGLVQAGGSLRLSCAASGFTFPWNVMGWYRQAPGKEREFVAAISKSAGSTFYADSVKGRFTISRDNAKNTVYLQMNSLKPEDTAVYFCAKPRVPGVHVQEMYYWGQGTQVTVSS", "polyreactivity (PSR sort gate)": "low polyreactivity"}
{"sequence chain": "QVQLVESGGGLVQAGGSLRLSCAASGRIFYNVMGWYRQAPGKERELVAAISSSGGRTYYADSVKGRFTISRDNAKNTVYLQMNSLKPEDTAVYYCAARAWYYGYWGQGTQVTVSS", "polyreactivity (PSR sort gate)": "high polyreactivity"}
{"sequence chain": "QVQLVESGGGLVQAGGSLRLSCAASGRTFRPYAMGWYRQAPGKERELVAAITSGVSTYYADSVKGRFTISRDNAKNTVYLQMNSLKPEDTAVYYCARGYLRSYRWSYTTRMGYWVQGTQVTVSS", "polyreactivity (PSR sort gate)": "high polyreactivity"}
{"sequence chain": "QVQLVESGGGLVQAGGSLRLSCAASGSTFGYNAMGWYRPAPGKERELVARITSSGGSTYYADSVKGRFTISRDNAKISVYLQMNSLKPEDTAVYYCAAGYPYRAVYRYYYWGQGTQVTVSS", "polyreactivity (PSR sort gate)": "high polyreactivity"}
{"sequence chain": "QVQLVESGGGLVQAGGSLRLSCAASGLTFKFNAMGWYIQAPGKERELVADISFGGDDTYYSDSVKGRFTISRDNAKNTVYLQMNSQKPEDNAVYYCAAEYDTWGYSGRDYWGQGTQVTVSS", "polyreactivity (PSR sort gate)": "low polyreactivity"}
{"sequence chain": "QVQLVESGGGLVQAGGSLRLSCASSALIFYWYPIGWYRQAPGKESELVAAISYGGTTTSYADSVKGRFTISRDNATNTVYLQMNSLKPEDTAVYYCAADWLYGHFQITGYPVGVDYWGQGTQVTVSS", "polyreactivity (PSR sort gate)": "low polyreactivity"}
{"sequence chain": "QVQLVESGGGLVQAGGSLRLSCAASGSTFTPYAMGWYRQVPGKERELVASITIGGSTYADSVKGRFTISRDNSKNTVYLQMNSLKPEDTAVYYCNADWNWYPFLYSRMDYWGQGTQVTVSS", "polyreactivity (PSR sort gate)": "low polyreactivity"}
{"sequence chain": "QVQLVESGGGLVQAGGSLRLSCAASGSIFWYNAMGWYIHAPWNERELVAAITSSSGRTRYADSEKGRFTISRDNAKNTVYLQMNSLKQEDTAVYYCAVAEGYSPAYLRDYWGQGTQVTVSS", "polyreactivity (PSR sort gate)": "high polyreactivity"}
{"sequence chain": "QVQLVESVGGLVQAGVSLRLSGAASGNTFVPYAMGWSRQAPGKESELVAAISLRGGSTYYADSVKGRFTISRDNAKNTVYLQMNSLKPEDTAVYYCAARTFYRPGLAGGYWGQGTQVTVAS", "polyreactivity (PSR sort gate)": "high polyreactivity"}

Value source: the nanobody polyreactivity screen of Harvey et al. (2022)
